# experiment_description: Study 2 part 1: effect of aging on pharmacokinetics, 50 mg once daily for 14 days
# Assay type: in vivo, human
# details: male, human, plasma, oral, 50 mg, 50 mg once daily, cohort A 65-74 y, day 14; mean (CV%); read-out: AUC0–24h
observed_property: AUC(0-t)
Form field: result (number plus unit)

Per the record, O=c1nc(OC[C@@H]2COCCO2)cc2n1CCc1cc(C#CC3CC3)ccc1-2 has AUC(0-t) of 54200 ng·h/mL

###

# experiment_description: Study 1 MAD part: plasma and urine pharmacokinetics, once daily for 14 days
# Format: in vivo, human
# details: male, human, plasma, oral, 50 mg, 50 mg once daily, day 14; mean (CV%); read-out: t1/2,λz (converted)
# Description: GLPG1205 or matching placebo were administered as an oral nanosuspension in the morning in a fed condition as an outpatient. […] GLPG1205 plasma concentrations were determined using a validated liquid chromatography with tandem mass spectrometry method. […] A QTRAP6500, QTRAP4000, or API4000 mass spectrometer (AB Sciex, Nieuwerkerk aan den Ijssel, The Netherlands) equipped with a TurboIonSpray probe operated in the multiple reaction monitoring in positive mode was used for quantification. […]
observed_property: half-life (h)
Kindly provide the numeric value in h only, without the unit symbol.

Reported half-life for O=c1nc(OC[C@@H]2COCCO2)cc2n1CCc1cc(C#CC3CC3)ccc1-2 was 76.7

###

# experiment_description: Study 2 part 1: effect of aging on pharmacokinetics, 50 mg once daily for 14 days
# Assay type: in vivo, human
# details: male, human, plasma, oral, 50 mg, 50 mg once daily, cohort C 18-50 y, day 14; mean (CV%); read-out: C24h
observed_property: concentration at 24 h
Remember to follow the number with its unit.

So for O=c1nc(OC[C@@H]2COCCO2)cc2n1CCc1cc(C#CC3CC3)ccc1-2 [GLPG1205] , the logged concentration at 24 h turned out to be 1590 ng/mL

###

# experiment_description: Study 2 part 1: effect of aging on pharmacokinetics, 50 mg once daily for 14 days
# Assay type: in vivo, human
# details: male, human, plasma, oral, 50 mg, 50 mg once daily, cohort C 18-50 y, day 14; mean (CV%)
observed_property: Cmax (ng/mL)
Express the result in ng/mL but write the number alone.

For record O=c1nc(OC[C@@H]2COCCO2)cc2n1CCc1cc(C#CC3CC3)ccc1-2 the listed Cmax is 1950

###

# experiment_description: Study 1 SAD part: plasma pharmacokinetics after single oral doses
# Assay type: in vivo, human
# details: male, human, plasma, oral; single 600 mg; median (minimum-maximum); read-out: tmax
observed_property: Tmax
# output: number + unit

Briefly, Tmax measured for O=c1nc(OC[C@@H]2COCCO2)cc2n1CCc1cc(C#CC3CC3)ccc1-2 [GLPG1205] : 4 h

###

# experiment_description: Study 1 SAD part: plasma pharmacokinetics after single oral doses
# Assay type: in vivo, human
# details: male, human, plasma, oral; single 90 mg; arithmetic mean (CV%); read-out: C24h
observed_property: concentration at 24 h (µg/mL)
Supply the numeric figure in µg/mL, leaving out any unit text.

Short answer for O=c1nc(OC[C@@H]2COCCO2)cc2n1CCc1cc(C#CC3CC3)ccc1-2 : concentration at 24 h was 0.511

###

# experiment_description: Study 2 part 1: effect of aging on pharmacokinetics, 50 mg once daily for 14 days
# Assay type: in vivo, human
# details: male, human, plasma, oral, 50 mg, 50 mg once daily, cohort A 65-74 y, day 14; mean (CV%), N = 4
observed_property: AUC(0-inf) (µg·h/mL)
Note: unit µg·h/mL is implicit; provide only the numeric part.

Entry O=c1nc(OC[C@@H]2COCCO2)cc2n1CCc1cc(C#CC3CC3)ccc1-2 , AUC(0-inf) reported as 338

###

# experiment_description: Study 2 part 1: effect of aging on pharmacokinetics, 50 mg once daily for 14 days
# Format: in vivo, human
# details: male, human, plasma, oral, 50 mg, 50 mg once daily, cohort B ≥75 y, day 14; mean (CV%), N = 4
# Protocol: During study 2, GLPG1205 50 mg or matching placebo was administered as capsules in the morning 30 minutes after the start of a standard breakfast. Subjects were kept in‐house from the evening of day –1 to ≈26 hours after the first dose (day 2), and from the evening of day 13 until day 15. […] GLPG1205 plasma concentrations were determined using a validated liquid chromatography with tandem mass spectrometry method. […] The limit of quantification of the assay in the plasma samples was set at 1 ng/mL. […]
observed_property: AUC(0-inf) (µg·h/mL)
Enter your answer as a number in µg·h/mL; do not include the unit.

Reported AUC(0-inf) for O=c1nc(OC[C@@H]2COCCO2)cc2n1CCc1cc(C#CC3CC3)ccc1-2 [GLPG1205] was 236

###

# experiment_description: Study 1 SAD part: plasma pharmacokinetics after single oral doses
# Assay type: in vivo, human
# details: male, human, plasma, oral; single 200 mg; arithmetic mean (CV%); read-out: AUC0‐24h
observed_property: AUC (ng·h/mL)
# value in ng·h/mL; strip the unit string

Given item O=c1nc(OC[C@@H]2COCCO2)cc2n1CCc1cc(C#CC3CC3)ccc1-2 [GLPG1205] , the value recorded as its AUC is 35800

###

# experiment_description: Study 1 SAD part: plasma pharmacokinetics after single oral doses
# Assay type: in vivo, human
# details: male, human, plasma, oral; single 30 mg; median (minimum-maximum); read-out: tmax
observed_property: Tmax (h)
Lab book: enter the figure in h, no units written.

Noted for O=c1nc(OC[C@@H]2COCCO2)cc2n1CCc1cc(C#CC3CC3)ccc1-2 : its Tmax reads 4

###

# experiment_description: Study 1 SAD part: plasma pharmacokinetics after single oral doses
# Assay type: in vivo, human
# details: male, human, plasma, oral; single 90 mg; arithmetic mean (CV%); read-out: AUC0‐24h
observed_property: AUC (ng·h/mL)
Enter your answer as a number in ng·h/mL; do not include the unit.

Consider O=c1nc(OC[C@@H]2COCCO2)cc2n1CCc1cc(C#CC3CC3)ccc1-2 . Its measured AUC is 14300

###

# experiment_description: Study 1 MAD part: plasma and urine pharmacokinetics, once daily for 14 days
# Format: in vivo, human
# details: male, human, plasma, oral, 100 mg, 100 mg once daily, day 14; median (minimum-maximum)
observed_property: Tmax (h)
Record the value in h, omitting the unit from your answer.

// Tmax lookup, molecule = O=c1nc(OC[C@@H]2COCCO2)cc2n1CCc1cc(C#CC3CC3)ccc1-2 , result: 4

###

# experiment_description: Study 1 SAD part: plasma pharmacokinetics after single oral doses
# Type: in vivo, human
# details: male, human, plasma, oral; single 200 mg; arithmetic mean (CV%), N = 5; read-out: t1/2,λz (converted)
observed_property: half-life
Note: state the figure and append the unit.

Field half-life (entry O=c1nc(OC[C@@H]2COCCO2)cc2n1CCc1cc(C#CC3CC3)ccc1-2 [GLPG1205] ) reads 54.3 h

###

# experiment_description: Study 1 SAD part: plasma pharmacokinetics after single oral doses
# Format: in vivo, human
# details: male, human, plasma, oral; single 400 mg; median (minimum-maximum); read-out: tmax
observed_property: Tmax (h)
Numeric answer only, unit h assumed.

Value of measured Tmax for the entry O=c1nc(OC[C@@H]2COCCO2)cc2n1CCc1cc(C#CC3CC3)ccc1-2 : 4

###

# experiment_description: Study 1 SAD part: plasma pharmacokinetics after single oral doses
# Type: in vivo, human
# details: male, human, plasma, oral; single 30 mg; arithmetic mean (CV%); read-out: C24h
observed_property: concentration at 24 h (ng/mL)
Kindly provide the numeric value in ng/mL only, without the unit symbol.

concentration at 24 h for O=c1nc(OC[C@@H]2COCCO2)cc2n1CCc1cc(C#CC3CC3)ccc1-2 [GLPG1205] is 144

###

# experiment_description: Study 2 part 1: effect of aging on pharmacokinetics, 50 mg once daily for 14 days
# Format: in vivo, human
# details: male, human, plasma, oral, 50 mg, 50 mg once daily, cohort C 18-50 y, day 14; mean (CV%), N = 5
# Method: During study 2, GLPG1205 50 mg or matching placebo was administered as capsules in the morning 30 minutes after the start of a standard breakfast. Subjects were kept in‐house from the evening of day –1 to ≈26 hours after the first dose (day 2), and from the evening of day 13 until day 15. […] GLPG1205 plasma concentrations were determined using a validated liquid chromatography with tandem mass spectrometry method. […] The limit of quantification of the assay in the plasma samples was set at 1 ng/mL. […]
observed_property: AUC(0-inf) (µg·h/mL)
Answer in µg·h/mL, number only, no unit symbol.

The measured AUC(0-inf) associated with O=c1nc(OC[C@@H]2COCCO2)cc2n1CCc1cc(C#CC3CC3)ccc1-2 [GLPG1205] reads 194

###

# experiment_description: Study 1 MAD part: plasma and urine pharmacokinetics, once daily for 14 days
# Type: in vivo, human
# details: male, human, plasma, oral, 100 mg, 100 mg once daily, day 14; mean (CV%)
observed_property: Cmax (ng/mL)
Answer in ng/mL, number only, no unit symbol.

Summary for this compound, O=c1nc(OC[C@@H]2COCCO2)cc2n1CCc1cc(C#CC3CC3)ccc1-2 : Cmax is 3910
